- system under test: GABA-A receptor; alpha-3/beta-3/gamma-2 (Homo sapiens) (UniProt P18507+P28472+P34903)
- protocol text: In vitro percent efficacy against human gamma-aminobutyric-acid A receptor alpha-3-beta-3-gamma-2 expressed in L(tk-) cells
- Assay type: cell-based
The compounds listed here are annotated with their Efficacy.
Only the number, expressed in %, is required.

See these solved cases before continuing.
>>> df
                                     smiles    metric  readout_unit  numeric_readout
0  CNC1=Nc2ccc(Cl)cc2C(c2ccccc2)=[N+]([O-])C1  Efficacy             %              113
1  CCc1c(C(=O)OC)ncc2[nH]c3cc(OC)c(OC)cc3c12  Efficacy             %              -62
2  Cc1cc(-c2nncc3c(C(C)(C)C)c(OCc4ncnn4C)nn23)no1  Efficacy             %               -9

Would you kindly look at the next entry?
Efficacy for `Cc1cc(-c2nnc3c4ccccc4c(OCc4cn(C)nn4)nn23)no1` is -7

* * *

- protocol text: Oral bioavailability in dog
- Assay type: ADME, organism-based, Canis lupus familiaris
- condition summary: in vivo
metric: bioavailability (%)
Only the number, expressed in %, is required.

bioavailability for `Cc1cc(-c2nncc3c(C(C)(C)C)c(OCc4ncnn4C)nn23)no1` is 8

* * *

- system under test: GABA-A receptor; alpha-1/beta-3/gamma-2 (Homo sapiens) (UniProt P14867+P18507+P28472)
- protocol text: In vitro percent efficacy against human gamma-aminobutyric-acid A receptor alpha-1-beta-3-gamma-2 expressed in L(tk-) cells
- Assay type: cell-based
metric: Efficacy

See these solved cases before continuing.
                                     smiles  result
0  Cc1cc(-c2nnc3c4ccccc4c(OCc4cn(C)nn4)nn23)no1    -15%
1  Cc1cc(-c2nncc3c(C(C)(C)C)c(OCc4ncnn4C)nn23)no1    -16%
2  CNC1=Nc2ccc(Cl)cc2C(c2ccccc2)=[N+]([O-])C1    100%

Sample `CCc1c(C(=O)OC)ncc2[nH]c3cc(OC)c(OC)cc3c12` , system: GABA-A receptor; alpha-1/beta-3/gamma-2 (Homo sapiens) (UniProt P14867+P18507+P28472). Its Efficacy is -71%

* * *

- system under test: GABA-A receptor; alpha-2/beta-3/gamma-2 (Homo sapiens) (UniProt P18507+P28472+P47869)
- protocol text: In vitro percent efficacy against human gamma-aminobutyric-acid A receptor alpha-2-beta-3-gamma-2 expressed in L(tk-) cells
- Type: cell-based
The compounds listed here are annotated with their Efficacy.
Only the number, expressed in %, is required.

See these solved cases before continuing.
                                     smiles    metric  readout_unit  numeric_readout
0  Cc1cc(-c2nnc3c4ccccc4c(OCc4cn(C)nn4)nn23)no1  Efficacy             %               16
1  Cc1cc(-c2nncc3c(C(C)(C)C)c(OCc4ncnn4C)nn23)no1  Efficacy             %                6
2  CCc1c(C(=O)OC)ncc2[nH]c3cc(OC)c(OC)cc3c12  Efficacy             %              -53

Would you kindly look at the next entry?
Efficacy for `CNC1=Nc2ccc(Cl)cc2C(c2ccccc2)=[N+]([O-])C1` is 111
